Reported IC50, cytotoxic effect on Reh cells (CellTiter-Glo, 72 h) values for a set of binders
Molecular target: TRAILR2 receptor on the surface of human tumor cells (human, UniProt O14763 56-440)
Test: cell-based or functional assay
property name: IC50, cytotoxic effect on Reh cells (CellTiter-Glo, 72 h) (mg/L)

binder="Zaptuzumab (antibody, V domains shown) VH: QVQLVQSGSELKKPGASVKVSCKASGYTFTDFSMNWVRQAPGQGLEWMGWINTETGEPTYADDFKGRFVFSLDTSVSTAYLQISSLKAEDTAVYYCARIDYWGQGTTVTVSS VL: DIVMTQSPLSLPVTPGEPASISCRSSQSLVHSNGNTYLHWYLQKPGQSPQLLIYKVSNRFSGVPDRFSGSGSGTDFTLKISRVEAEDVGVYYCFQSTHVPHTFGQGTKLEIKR" test_result=1.59
binder="Zapadcine-3c (antibody, V domains shown, MMAE coupled through linker MC-VC-PAB by thiol conventional coupling, cleavable; positions not given) VH: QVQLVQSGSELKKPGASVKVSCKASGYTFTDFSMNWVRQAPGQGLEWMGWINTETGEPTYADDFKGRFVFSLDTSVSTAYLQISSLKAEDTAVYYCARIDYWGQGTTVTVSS VL: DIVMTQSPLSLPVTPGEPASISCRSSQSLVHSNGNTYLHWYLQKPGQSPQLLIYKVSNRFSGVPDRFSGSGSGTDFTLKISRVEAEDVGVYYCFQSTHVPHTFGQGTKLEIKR" test_result=0.889
binder="Zapadcine-3e (antibody, V domains shown, MMAF coupled through linker MC by thiol conventional coupling, non-cleavable; positions not given) VH: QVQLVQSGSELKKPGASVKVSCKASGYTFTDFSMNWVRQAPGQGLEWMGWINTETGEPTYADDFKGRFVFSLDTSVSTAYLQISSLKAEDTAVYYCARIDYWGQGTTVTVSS VL: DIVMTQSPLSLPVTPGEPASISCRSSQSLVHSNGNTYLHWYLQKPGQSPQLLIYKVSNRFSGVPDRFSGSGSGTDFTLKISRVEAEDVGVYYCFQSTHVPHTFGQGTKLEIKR" test_result=0.163
